test system: PC 12 cells; assay: Neurite outgrowth assay, PC 12; format: cell-based; details: Rattus norvegicus
test readout: EC50 (µM)
Numeric only. Scale: µM

Query :: Supply EC50 value. Item: "CC(C)c1nc2cc(/C=C/C(=O)NO)ccc2c(=O)n1CCc1ccccc1"
Result :: 5.28

Query :: Kindly indicate its recorded EC50. Item: "Cc1nc2cc(/C=C/C(=O)NO)ccc2c(=O)n1CCc1ccccc1"
Result :: 6.49

Query :: Answer with the recorded EC50 of "CCc1nc2cc(/C=C/C(=O)NO)ccc2c(=O)n1CCc1ccc(F)cc1" only.
Result :: 13.9

----------
assay: MTT or SRB assay for cytotoxicity, A549; assay type: cell-based; details: human, A549 cells, read-out: cytotoxicity IC50 (grading) A549
pIC50: −log10 of the molar value.
Some molecules, each annotated with its measured pIC50.

These recorded examples may help you get a feel for the data.
>  <cpd smiles>
CCc1nc2cc(F)c(/C=C/C(=O)NO)cc2c(=O)n1CCc1ccccc1

>  <pIC50>
5.00 to 6.00

$$$$
>  <cpd smiles>
CCc1nc2c(-c3ccc(C(=O)NO)cc3)cccc2c(=O)n1CCc1ccccc1

>  <pIC50>
≤ 5.00

$$$$
>  <cpd smiles>
CCc1nc2cc(/C=C/C(=O)NO)ccc2c(=O)n1CCc1ccc(OC)cc1

>  <pIC50>
5.00 to 6.00

$$$$
>  <cpd smiles>
CCc1nc2cc(/C=C/C(=O)NO)c(F)cc2c(=O)n1CCc1ccccc1

>  <pIC50>
5.00 to 6.00

$$$$
>  <cpd smiles>
CCc1nc2cc(Cc3ccc(C(=O)NO)cc3)ccc2c(=O)n1CCc1ccccc1

>  <pIC50>
5.00 to 6.00

$$$$

Query :: Please give the documented pIC50 of "CCc1nc2cc(Cl)c(/C=C/C(=O)NO)cc2c(=O)n1CCc1ccccc1"
Result :: 5.00 to 6.00

Query :: Specify pIC50 for "Cc1nc2cc(/C=C/C(=O)Nc3ccccc3N)ccc2c(=O)n1CCc1ccccc1" and stop.
Result :: ≤ 5.00

Query :: State, in one line, measured pIC50 of "CCc1nc2c(Cc3ccc(C(=O)NO)cc3)cccc2c(=O)n1CCc1ccccc1"
Result :: ≤ 5.00

Query :: Name the recorded pIC50 of the item "CCc1nc2cc(/C=C/C(=O)NO)ccc2c(=O)n1CCc1ccccc1" in your answer.
Result :: ≤ 5.00

Query :: Fill in pIC50 for record "CCc1nc2cc(/C=C/C(=O)NO)ccc2c(=O)n1CCc1ccc(F)cc1"
Result :: 5.00 to 6.00

----------
# pIC50 listing for each entry below
assay: MTT or SRB assay for cytotoxicity, PANC1; assay type: cell-based; settings: human, PANC-1 cells, read-out: cytotoxicity IC50 (grading) PANC1
pIC50: −log10 of the molar value.

>  <cpd smiles>
CCc1nc2cc(Cc3ccc(C(=O)NO)cc3)ccc2c(=O)n1CCc1ccccc1

>  <pIC50>
5.00 to 6.00

$$$$

Query :: Let me know recorded pIC50 for "CCc1nc2cc(/C=C/C(=O)NO)ccc2c(=O)n1CCc1ccccc1" , thanks.
Result :: ≤ 5.00

Query :: Tell me its pIC50 given "CCc1nc2cc(F)c(/C=C/C(=O)NO)cc2c(=O)n1CCc1ccccc1" as the entry.
Result :: ≤ 5.00

Query :: Query pIC50 for "CCc1nc2cc(/C=C/C(=O)NO)ccc2c(=O)n1CCc1ccc(OC)cc1"
Result :: 5.00 to 6.00

Query :: Return pIC50 for the following compound: "CCc1nc2cc(/C=C/C(=O)NO)c(F)cc2c(=O)n1CCc1ccccc1"
Result :: 5.00 to 6.00

Query :: Report pIC50, nothing else, for this compound: "CCc1nc2cc(Cl)c(/C=C/C(=O)NO)cc2c(=O)n1CCc1ccccc1"
Result :: 6.00 to 7.00
